Just for reference, patent US11192880B2 is where these values come from.

assay_method_text: Liver microsomal metabolic stability, human
Type: in vitro ADME
test_conditions: % remaining after 60 minutes, 1 μM compound, 0.5 mg/mL protein
Experimental: (f) Microsomal Stability Assays Liver Microsomal Metabolic Stability Working stocks were initially diluted to a concentration of 40.0 μM in 0.1 M potassium phosphate buffer (pH 7.4) before addition to the reaction vials. CD-1 mouse (male) or pooled human liver microsomes (Corning Gentest) were utilized at a final concentration of 0.5 mg/mL (protein). Duplicate wells were used for each time point (0 and 60 minutes). […]
Quick reference: Human Liver Microsomes (HLM, % @ 1 h) of the listed items.
Give just the numeric value; % need not be written.

# example entries with known answers
{"columns": ["molecule", "unit_info", "Human Liver Microsomes (HLM, % @ 1 h)"],
 "data": [
  ["CNC(=O)COc1cc2cc(Nc3nc(N4CC5CCC(C4)C5(F)F)ncc3Cl)ccc2n(C)c1=O", "%", 44],
  ["CNC(=O)COc1cc2cc(Nc3nc(N4C[C@H](C)C[C@H](C)C4)ncc3Cl)ccc2n(C)c1=O [BI-3802, reference compound]", "%", 25],
  ["CNC(=O)COc1cc2cc(Nc3nc(N4C[C@@H](C)N[C@@H](C)C4)ncc3Cl)ccc2n(C)c1=O", "%", 34],
  ["CNC(=O)COc1cc2cc(Nc3nc(N4C[C@@H](C)C(F)(F)[C@@H](C)C4)ncc3Cl)ccc2n(C)c1=O", "%", 77]
]}

Turning now to a further record.
Input: State, in one line, measured Human Liver Microsomes (HLM, % @ 1 h) of "CNC(=O)COc1cc2cc(Nc3nc(N4C[C@@H](C)O[C@@H](C)C4)ncc3Cl)ccc2n(C)c1=O"
Output: 74

###

system: BTB domain of BCL6 / SMRT BBD peptide (Homo sapiens (Human))
assay_method_text: BCL6-BTB-SMRT peptide inhibition fluorescence polarization (FP) screen
test_conditions: 1.25 uM BCL6-BTB, 20 nM Bodipy-TMR SMRT peptide probe; lower limit of assay 1 uM
measurement_name: IC50 (nM)
Give just the numeric value; nM need not be written.

# example entries with known answers
{"columns": ["structure_as_smiles", "system", "unit_info", "IC50"],
 "data": [
  ["CNC(=O)COc1cc2cc(Nc3nc(N4C[C@@H](C)O[C@@H](C)C4)ncc3Cl)ccc2n(C)c1=O", "BTB domain of BCL6 / SMRT BBD peptide (Homo sapiens (Human))", "nM", 1200],
  ["CNC(=O)COc1cc2cc(Nc3nc(N4CC5CCC(C4)C5(F)F)ncc3Cl)ccc2n(C)c1=O", "BTB domain of BCL6 / SMRT BBD peptide (Homo sapiens (Human))", "nM", 1800],
  ["CNC(=O)COc1cc2cc(Nc3nc(N4C[C@@H](C)N[C@@H](C)C4)ncc3Cl)ccc2n(C)c1=O", "BTB domain of BCL6 / SMRT BBD peptide (Homo sapiens (Human))", "nM", 1600]
]}

Turning now to a further record.
Input: State, in one line, measured IC50 of "CNC(=O)COc1cc2cc(Nc3nc(N4C[C@@H](C)C(F)(F)[C@@H](C)C4)ncc3Cl)ccc2n(C)c1=O"
Output: 900

###

Quick reference: pKd of the listed items.
system: BCL6 BTB domain (Homo sapiens (Human), UniProt P41182)
// pKd: -log10(molar conc.)

# example entries with known answers
{"columns": ["compound", "measurement_name", "value"],
 "data": [
  ["CNC(=O)COc1cc2cc(Nc3nc(N4C[C@@H](C)N[C@@H](C)C4)ncc3Cl)ccc2n(C)c1=O [Compound X-1]", "pKd", 8.24],
  ["CNC(=O)COc1cc2cc(Nc3nc(N4C[C@@H](C)O[C@@H](C)C4)ncc3Cl)ccc2n(C)c1=O [Compound X-2]", "pKd", 7.99]
]}

Turning now to a further record.
Input: Answer briefly: pKd recorded on BCL6 BTB domain (Homo sapiens (Human), UniProt P41182) for CNC(=O)COc1cc2cc(Nc3nc(N4CC5CCC(C4)C5(F)F)ncc3Cl)ccc2n(C)c1=O [Compound X-3]
Output: 7.80

###

Quick reference: Mouse Liver Microsomes (MLM, % @ 1 h) of the listed items.
assay_method_text: Liver microsomal metabolic stability, mouse
Type: in vitro ADME
test_conditions: % remaining after 60 minutes, 1 μM compound, 0.5 mg/mL protein
Give just the numeric value; % need not be written.

{"columns": ["compound", "unit_info", "Mouse Liver Microsomes (MLM, % @ 1 h)"],
 "data": [
  ["CNC(=O)COc1cc2cc(Nc3nc(N4C[C@@H](C)O[C@@H](C)C4)ncc3Cl)ccc2n(C)c1=O [Compound X-2]", "%", 70],
  ["CNC(=O)COc1cc2cc(Nc3nc(N4C[C@H](C)C[C@H](C)C4)ncc3Cl)ccc2n(C)c1=O [BI-3802, reference compound]", "%", 13],
  ["CNC(=O)COc1cc2cc(Nc3nc(N4C[C@@H](C)N[C@@H](C)C4)ncc3Cl)ccc2n(C)c1=O [Compound X-1]", "%", 15],
  ["CNC(=O)COc1cc2cc(Nc3nc(N4CC5CCC(C4)C5(F)F)ncc3Cl)ccc2n(C)c1=O [Compound X-3]", "%", 0.5]
]}

Turning now to a further record.
Input: State, in one line, measured Mouse Liver Microsomes (MLM, % @ 1 h) of CNC(=O)COc1cc2cc(Nc3nc(N4C[C@@H](C)C(F)(F)[C@@H](C)C4)ncc3Cl)ccc2n(C)c1=O [Ia]
Output: 61
